assay: ^1O2 quantum yield, photooxidation of DMA (indirect method); type: physicochemical; details: consumption of dimethylanthracene, Rose Bengal standard, air equilibrated acetonitrile
Quick list: ΦΔ^I (singlet oxygen quantum yield, indirect) per entry.
readout_label: ΦΔ^I (singlet oxygen quantum yield, indirect)

compound	reported
CC1=C(I)C(C)=[N+]2C1=C(COC(=O)C1(C)CCc3c(C)c(O)c(C)c(C)c3O1)c1c(C)c(I)c(C)n1[B-]2(F)F (racemic)	0.46
CC(=O)OCC1=C2C(C)=C(Br)C(C)=[N+]2[B-](F)(F)n2c(C)c(Br)c(C)c21	0.79
CC1=C(Br)C(C)=[N+]2C1=C(C)c1c(C)c(Br)c(C)n1[B-]2(F)F	0.64
CC(=O)OCC1=C2C(C)=C(I)C(C)=[N+]2[B-](F)(F)n2c(C)c(I)c(C)c21	0.95
CC1=C(I)C(C)=[N+]2C1=C(C)c1c(C)c(I)c(C)n1[B-]2(F)F	0.75
